Data provenance: the supplement of paper PMC10065799

tested on: AncSZ; assay: phosphorylation enrichment, bacterial display (enrichment ratio); higher = better substrate or ligand; peptides without Tyr show the background;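 note: 11-residue human phosphosite peptides and single-mutation variants displayed on the E. coli surface, counted by deep sequencing, each peptide's frequency after selection divided by its frequency in the unselected input library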;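 note: frequency after pTyr selection over input frequency; kinase dosed for 20-30% of maximal phosphorylation in three min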
Overview of reported phosphorylation enrichment across a group of sequences:
measure name: phosphorylation enrichment

[[record]]
sequence_data = "GIADDYDKKKL [EIF1_Y54]"
test_target = "AncSZ"
numeric_value = 0.882

[[record]]
sequence_data = "YIATQYSLCPR [LBR_Y166_R169C]"
test_target = "AncSZ"
numeric_value = 1.23

[[record]]
sequence_data = "QQLDEYQKLLD [LMNA_Y359_E361K]"
test_target = "AncSZ"
numeric_value = 1.53

[[record]]
sequence_data = "DVQNEYDSNHC [ZFYVE16_Y36_A35E]"
test_target = "AncSZ"
numeric_value = 1.01

[[record]]
sequence_data = "CRIELYRVVES [IGFBP1_Y181]"
test_target = "AncSZ"
numeric_value = 1.2

[[record]]
sequence_data = "TKFRNYLIPNG [CYP2C8_Y379_K383N]"
test_target = "AncSZ"
numeric_value = 0.68

[[record]]
sequence_data = "PLRAFYLIARV [HLCS_Y635_D634Y_YF]"
test_target = "AncSZ"
numeric_value = 3.67

[[record]]
sequence_data = "LPKVSCVKAID [GLRA1_Y307_Y307C]"
test_target = "AncSZ"
numeric_value = 1.19

[[record]]
sequence_data = "GTYEDYVEGLR [MYL6_Y89]"
test_target = "AncSZ"
numeric_value = 1.31

[[record]]
sequence_data = "CHRQLYHKCTH [F12_Y58_Y53C]"
test_target = "AncSZ"
numeric_value = 0.497

[[record]]
sequence_data = "GYCSWYRGWAP [TIMP3_Y195]"
test_target = "AncSZ"
numeric_value = 1.38

[[record]]
sequence_data = "SLIDGYFRLTA [JAK2_Y372_YF]"
test_target = "AncSZ"
numeric_value = 1.1

[[record]]
sequence_data = "AAVPAYDKIQV [STXBP2_Y401_R405Q]"
test_target = "AncSZ"
numeric_value = 0.92

[[record]]
sequence_data = "FIAVGYVDDSQ [HLA-A_Y51_T55S]"
test_target = "AncSZ"
numeric_value = 0.783

